Listed below: CC50 values for each entry.
- Test system: NCI-H522
- Assay conditions: read-out: 50% lethal concentration (LC50); NCI-H522, Non-Small Cell Lung
Please provide the amount together with its unit, number first.

Known CC50 results, listed for orientation:
- Compound: "C=C1CCC2C3(C)COC(c4cn(-c5ccccc5)nc4-c4ccc(OC)cc4)OC3CCC2(C)C1CC=C1C(=O)OCC1O (stereo not drawn)"
  System under test: "NCI-H522"
  CC50: "6.06 µM"
- Compound: "C=C1CCC2C3(C)COC(c4cn(-c5ccccc5)nc4-c4ccc(Cl)cc4)OC3CCC2(C)C1CC=C1C(=O)OCC1O (stereo not drawn)"
  System under test: "NCI-H522"
  CC50: "6.17 µM"

Request: Request the reported CC50 associated with C=C1CCC2C3(C)COC(c4cn(-c5ccccc5)nc4-c4cccc(Br)c4)OC3CCC2(C)C1CC=C1C(=O)OCC1O (stereo not drawn)
Response: 5.62 µM

###

- Tested on: MDA-MB-468
- Assay conditions: MDA-MB-468, Breast
Listed below: Total growth inhibition (TGI) values for each entry.
State just the number; it will be interpreted in µM.

Known Total growth inhibition (TGI) results, listed for orientation:
- Compound: "C=C1CCC2C3(C)COC(c4cn(-c5ccccc5)nc4-c4ccccc4)OC3CCC2(C)C1CC=C1C(=O)OCC1O (stereo not shown) [1a]"
  Measurement unit: "µM"
  Observed measurement: 3.34
- Compound: "C=C1CCC2C3(C)COC(c4cn(-c5ccccc5)nc4-c4cccc(Cl)c4)OC3CCC2(C)C1CC=C1C(=O)OCC1O (stereo not shown) [1d]"
  Measurement unit: "µM"
  Observed measurement: 3.31

Request: Request the reported Total growth inhibition (TGI) associated with C=C1CCC2C3(C)COC(c4cn(-c5ccccc5)nc4-c4ccc(C)cc4)OC3CCC2(C)C1CC=C1C(=O)OCC1O (stereo not shown) [1i]
Response: 3.45

Request: And for C=C1CCC2C3(C)COC(c4cn(-c5ccccc5)nc4-c4cccc(Br)c4)OC3CCC2(C)C1CC=C1C(=O)OCC1O (stereo not shown) [1e] ?
Response: 3.41

Request: And for C=C1CCC2C3(C)COC(c4cn(-c5ccccc5)nc4-c4cccc(F)c4)OC3CCC2(C)C1CC=C1C(=O)OCC1O (stereo not shown) [1c] ?
Response: 3.13

Request: And for C=C1CCC2C3(C)COC(c4cn(-c5ccccc5)nc4-c4ccc(Br)cc4)OC3CCC2(C)C1CC=C1C(=O)OCC1O (stereo not shown) [1h] ?
Response: 3.47

Request: And for C=C1CCC2C3(C)COC(c4cn(-c5ccccc5)nc4-c4ccc(Cl)cc4)OC3CCC2(C)C1CC=C1C(=O)OCC1O (stereo not shown) [1g] ?
Response: 4.49

###

Listed below: CC50 values for each entry.
- Test system: OVCAR-3
- Assay conditions: read-out: 50% lethal concentration (LC50); OVCAR-3, Ovarian
State just the number; it will be interpreted in µM.

Known CC50 results, listed for orientation:
- Molecule: "C=C1CCC2C3(C)COC(c4cn(-c5ccccc5)nc4-c4ccc(C)cc4)OC3CCC2(C)C1CC=C1C(=O)OCC1O (stereo not drawn)"
  CC50 (µM): 7.49
- Molecule: "C=C1CCC2C3(C)COC(c4cn(-c5ccccc5)nc4-c4ccc(Br)cc4)OC3CCC2(C)C1CC=C1C(=O)OCC1O (stereo not drawn)"
  CC50 (µM): 7.25

Please find the next molecule below.
Request: Request the reported CC50 associated with C=C1CCC2C3(C)COC(c4cn(-c5ccccc5)nc4-c4ccc(Cl)cc4)OC3CCC2(C)C1CC=C1C(=O)OCC1O (stereo not drawn)
Response: 7.77
